# System: Cytospora mali
# assayProcedure: Antifungal activity against Valsa mali at 200 mg/L by plate growth rate method
# Type: functional
# measurementConditions: read-out: GI

# compoundSmiles, inhibition of growth at 200 µg/mL (%)
rows = [
    ("CCn1cc(C(=O)O)c(=O)c2cc(F)c(N3CCN(C(=O)COc4ccc(Cl)cc4Cl)CC3)cc21", 17),
    ("COC(=O)Nc1nc2ccccc2[nH]1", 95),
    ("CCn1cc(C(=O)O)c(=O)c2cc(F)c(N3CCN(C(=O)c4ccco4)CC3)cc21", 8),
    ("CCn1cc(C(=O)O)c(=O)c2cc(F)c(N3CCN(C(=O)/C=C/c4ccccc4)CC3)cc21", 9),
    ("CCn1cc(C(=O)O)c(=O)c2cc(F)c(N3CCN(C(=O)/C=C/c4ccc(C)o4)CC3)cc21", 25),
]

====

# System: Xanthomonas oryzae
# assayProcedure: Antibacterial activity against Xanthomonas oryzae at 50 mg/L after 24 hrs by agar well diffusion method
# Type: functional
# measurementConditions: read-out: DIZ
The following compounds are shown together with reported zone of inhibition at 50 µg/mL values.
parameter: zone of inhibition at 50 µg/mL (mm)

# compoundSmiles, parameter, reportedValue
records = [
    ("CCn1cc(C(=O)O)c(=O)c2cc(F)c(N3CCN(C(=O)c4ccc(Cl)cc4)CC3)cc21", "zone of inhibition at 50 µg/mL", 17.7),
    ("CCn1cc(C(=O)O)c(=O)c2cc(F)c(N3CCN(C(=O)COc4ccc(Cl)cc4Cl)CC3)cc21", "zone of inhibition at 50 µg/mL", 10),
    ("CCn1cc(C(=O)O)c(=O)c2cc(F)c(N3CCN(C(=O)COc4ccccc4OC)CC3)cc21", "zone of inhibition at 50 µg/mL", 11.9),
    ("CCn1cc(C(=O)O)c(=O)c2cc(F)c(N3CCN(C(=O)c4ccco4)CC3)cc21", "zone of inhibition at 50 µg/mL", 22.9),
]

====

Examples of molecules with documented zone of inhibition at 50 µg/mL follow.
# Tested on: Xanthomonas oryzae
# assayProcedure: Antibacterial activity against Xanthomonas oryzae at 50 mg/L after 24 hrs by agar well diffusion method
# Format: functional
# measurementConditions: read-out: DIZ
parameter: zone of inhibition at 50 µg/mL (mm)

# compoundSmiles, reportedValue
rows = [
    ("CCn1cc(C(=O)O)c(=O)c2cc(F)c(N3CCN(C(=O)c4cc(C)oc4C)CC3)cc21", 18.1),
    ("CCn1cc(C(=O)O)c(=O)c2cc(F)c(N3CCN(C(=O)COc4ccc(Br)cc4)CC3)cc21", 8.02),
    ("CCn1cc(C(=O)O)c(=O)c2cc(F)c(N3CCN(C(=O)/C=C/c4ccc(OC)cc4)CC3)cc21", 5.35),
    ("CN[C@@H]1[C@H](O[C@H]2[C@H](O[C@H]3[C@H](O)[C@@H](O)[C@H](N=C(N)N)[C@@H](O)[C@@H]3N=C(N)N)O[C@@H](C)[C@]2(O)C=O)O[C@@H](CO)[C@H](O)[C@H]1O", 0.81),
    ("CCn1cc(C(=O)O)c(=O)c2cc(F)c(N3CCN(C(=O)c4cccnc4)CC3)cc21", 7.94),
    ("CCn1cc(C(=O)O)c(=O)c2cc(F)c(N3CCN(C(=O)Cc4cccc5ccccc45)CC3)cc21", 9.35),
    ("CCn1cc(C(=O)O)c(=O)c2cc(F)c(N3CCN(C(=O)/C=C/c4ccc(C)o4)CC3)cc21", 18.1),
    ("CCn1cc(C(=O)O)c(=O)c2cc(F)c(N3CCN(C(=O)/C=C/c4ccco4)CC3)cc21", 15.3),
    ("CCn1cc(C(=O)O)c(=O)c2cc(F)c(N3CCN(C(=O)c4ccc(C)cc4)CC3)cc21", 19.7),
    ("CCn1cc(C(=O)O)c(=O)c2cc(F)c(N3CCN(C(=O)c4ccccc4O)CC3)cc21", 16.7),
    ("CCn1cc(C(=O)O)c(=O)c2cc(F)c(N3CCN(C(=O)c4ccccc4Cl)CC3)cc21", 16.9),
    ("CCn1cc(C(=O)O)c(=O)c2cc(F)c(N3CCNCC3)cc21", 22.2),
    ("CCn1cc(C(=O)O)c(=O)c2cc(F)c(N3CCN(C(=O)COc4ccc(C(C)(C)C)cc4)CC3)cc21", 5.81),
    ("CCn1cc(C(=O)O)c(=O)c2cc(F)c(N3CCN(C(=O)COc4ccc(F)cc4)CC3)cc21", 11),
    ("CCn1cc(C(=O)O)c(=O)c2cc(F)c(N3CCN(C(=O)COc4ccccc4Cl)CC3)cc21", 17.2),
    ("CCn1cc(C(=O)O)c(=O)c2cc(F)c(N3CCN(C(=O)c4c(C)oc(C)c4C)CC3)cc21", 12.7),
    ("CCn1cc(C(=O)O)c(=O)c2cc(F)c(N3CCN(C(=O)COc4ccc(OC)cc4)CC3)cc21", 14.5),
]

====

# System: Erwinia
# assayProcedure: Antibacterial activity against Erwinia aroideae at 50 mg/L after 24 hrs by agar well diffusion method
# Assay type: functional
# measurementConditions: read-out: DIZ

# compoundSmiles, zone of inhibition at 50 µg/mL / mm
records = [
    ("CCn1cc(C(=O)O)c(=O)c2cc(F)c(N3CCN(C(=O)c4ccc(Br)o4)CC3)cc21", 13.7),
    ("CCn1cc(C(=O)O)c(=O)c2cc(F)c(N3CCN(C(=O)c4ccc(C)cc4)CC3)cc21", 14.6),
    ("CCn1cc(C(=O)O)c(=O)c2cc(F)c(N3CCN(C(=O)c4ccc(Cl)cc4)CC3)cc21", 16.6),
    ("CCn1cc(C(=O)O)c(=O)c2cc(F)c(N3CCN(C(=O)/C=C/c4ccccc4)CC3)cc21", 10.8),
    ("CCn1cc(C(=O)O)c(=O)c2cc(F)c(N3CCN(C(=O)COc4ccc(Br)cc4)CC3)cc21", 8.94),
    ("CCn1cc(C(=O)O)c(=O)c2cc(F)c(N3CCN(C(=O)COc4ccccc4Cl)CC3)cc21", 11.8),
    ("CCn1cc(C(=O)O)c(=O)c2cc(F)c(N3CCN(C(=O)c4cc(C)oc4C)CC3)cc21", 11.7),
    ("CCn1cc(C(=O)O)c(=O)c2cc(F)c(N3CCN(C(=O)c4cccnc4)CC3)cc21", 9.19),
    ("CCn1cc(C(=O)O)c(=O)c2cc(F)c(N3CCN(C(=O)COc4ccc(Cl)cc4Cl)CC3)cc21", 8.52),
    ("CCn1cc(C(=O)O)c(=O)c2cc(F)c(N3CCN(C(=O)c4cc5ccccc5o4)CC3)cc21", 11),
    ("CCn1cc(C(=O)O)c(=O)c2cc(F)c(N3CCN(C(=O)COc4ccc(C(C)(C)C)cc4)CC3)cc21", 8.52),
    ("CCn1cc(C(=O)O)c(=O)c2cc(F)c(N3CCN(C(=O)COc4ccc(F)cc4)CC3)cc21", 13.3),
    ("CCn1cc(C(=O)O)c(=O)c2cc(F)c(N3CCN(C(=O)c4ccccc4Br)CC3)cc21", 16.2),
]

====

# System: Fusarium graminearum
# assayProcedure: Antifungal activity against Gibberella zeae at 200 mg/L by plate growth rate method
# Type: functional
# measurementConditions: read-out: GI
Param threshold (10%) applies to inhibition of growth at 200 µg/mL; output criterion met when value >= threshold, criterion not met when value < threshold.

# compoundSmiles, classification
measured = [
    ("CCn1cc(C(=O)O)c(=O)c2cc(F)c(N3CCN(C(=O)COc4ccccc4OC)CC3)cc21", "criterion met"),
    ("CCn1cc(C(=O)O)c(=O)c2cc(F)c(N3CCN(C(=O)/C=C/c4ccc(OC)cc4)CC3)cc21", "criterion not met"),
    ("CCn1cc(C(=O)O)c(=O)c2cc(F)c(N3CCN(C(=O)/C=C/c4ccco4)CC3)cc21", "criterion not met"),
    ("CCn1cc(C(=O)O)c(=O)c2cc(F)c(N3CCN(C(=O)/C=C/c4ccc(C)o4)CC3)cc21", "criterion met"),
    ("CCn1cc(C(=O)O)c(=O)c2cc(F)c(N3CCN(C(=O)c4ccc(C)cc4)CC3)cc21", "criterion met"),
    ("CCn1cc(C(=O)O)c(=O)c2cc(F)c(N3CCN(C(=O)c4cccnc4)CC3)cc21", "criterion met"),
    ("CCn1cc(C(=O)O)c(=O)c2cc(F)c(N3CCN(C(=O)c4ccccc4Cl)CC3)cc21", "criterion met"),
    ("CCn1cc(C(=O)O)c(=O)c2cc(F)c(N3CCN(C(=O)COc4ccc(C(C)(C)C)cc4)CC3)cc21", "criterion met"),
    ("CCn1cc(C(=O)O)c(=O)c2cc(F)c(N3CCN(C(=O)COc4ccc(F)cc4)CC3)cc21", "criterion met"),
]
